target under test: LRRK2 wild type enzyme (Homo sapiens, UniProt Q5S007)
Sequence (Q5S007 whole entry): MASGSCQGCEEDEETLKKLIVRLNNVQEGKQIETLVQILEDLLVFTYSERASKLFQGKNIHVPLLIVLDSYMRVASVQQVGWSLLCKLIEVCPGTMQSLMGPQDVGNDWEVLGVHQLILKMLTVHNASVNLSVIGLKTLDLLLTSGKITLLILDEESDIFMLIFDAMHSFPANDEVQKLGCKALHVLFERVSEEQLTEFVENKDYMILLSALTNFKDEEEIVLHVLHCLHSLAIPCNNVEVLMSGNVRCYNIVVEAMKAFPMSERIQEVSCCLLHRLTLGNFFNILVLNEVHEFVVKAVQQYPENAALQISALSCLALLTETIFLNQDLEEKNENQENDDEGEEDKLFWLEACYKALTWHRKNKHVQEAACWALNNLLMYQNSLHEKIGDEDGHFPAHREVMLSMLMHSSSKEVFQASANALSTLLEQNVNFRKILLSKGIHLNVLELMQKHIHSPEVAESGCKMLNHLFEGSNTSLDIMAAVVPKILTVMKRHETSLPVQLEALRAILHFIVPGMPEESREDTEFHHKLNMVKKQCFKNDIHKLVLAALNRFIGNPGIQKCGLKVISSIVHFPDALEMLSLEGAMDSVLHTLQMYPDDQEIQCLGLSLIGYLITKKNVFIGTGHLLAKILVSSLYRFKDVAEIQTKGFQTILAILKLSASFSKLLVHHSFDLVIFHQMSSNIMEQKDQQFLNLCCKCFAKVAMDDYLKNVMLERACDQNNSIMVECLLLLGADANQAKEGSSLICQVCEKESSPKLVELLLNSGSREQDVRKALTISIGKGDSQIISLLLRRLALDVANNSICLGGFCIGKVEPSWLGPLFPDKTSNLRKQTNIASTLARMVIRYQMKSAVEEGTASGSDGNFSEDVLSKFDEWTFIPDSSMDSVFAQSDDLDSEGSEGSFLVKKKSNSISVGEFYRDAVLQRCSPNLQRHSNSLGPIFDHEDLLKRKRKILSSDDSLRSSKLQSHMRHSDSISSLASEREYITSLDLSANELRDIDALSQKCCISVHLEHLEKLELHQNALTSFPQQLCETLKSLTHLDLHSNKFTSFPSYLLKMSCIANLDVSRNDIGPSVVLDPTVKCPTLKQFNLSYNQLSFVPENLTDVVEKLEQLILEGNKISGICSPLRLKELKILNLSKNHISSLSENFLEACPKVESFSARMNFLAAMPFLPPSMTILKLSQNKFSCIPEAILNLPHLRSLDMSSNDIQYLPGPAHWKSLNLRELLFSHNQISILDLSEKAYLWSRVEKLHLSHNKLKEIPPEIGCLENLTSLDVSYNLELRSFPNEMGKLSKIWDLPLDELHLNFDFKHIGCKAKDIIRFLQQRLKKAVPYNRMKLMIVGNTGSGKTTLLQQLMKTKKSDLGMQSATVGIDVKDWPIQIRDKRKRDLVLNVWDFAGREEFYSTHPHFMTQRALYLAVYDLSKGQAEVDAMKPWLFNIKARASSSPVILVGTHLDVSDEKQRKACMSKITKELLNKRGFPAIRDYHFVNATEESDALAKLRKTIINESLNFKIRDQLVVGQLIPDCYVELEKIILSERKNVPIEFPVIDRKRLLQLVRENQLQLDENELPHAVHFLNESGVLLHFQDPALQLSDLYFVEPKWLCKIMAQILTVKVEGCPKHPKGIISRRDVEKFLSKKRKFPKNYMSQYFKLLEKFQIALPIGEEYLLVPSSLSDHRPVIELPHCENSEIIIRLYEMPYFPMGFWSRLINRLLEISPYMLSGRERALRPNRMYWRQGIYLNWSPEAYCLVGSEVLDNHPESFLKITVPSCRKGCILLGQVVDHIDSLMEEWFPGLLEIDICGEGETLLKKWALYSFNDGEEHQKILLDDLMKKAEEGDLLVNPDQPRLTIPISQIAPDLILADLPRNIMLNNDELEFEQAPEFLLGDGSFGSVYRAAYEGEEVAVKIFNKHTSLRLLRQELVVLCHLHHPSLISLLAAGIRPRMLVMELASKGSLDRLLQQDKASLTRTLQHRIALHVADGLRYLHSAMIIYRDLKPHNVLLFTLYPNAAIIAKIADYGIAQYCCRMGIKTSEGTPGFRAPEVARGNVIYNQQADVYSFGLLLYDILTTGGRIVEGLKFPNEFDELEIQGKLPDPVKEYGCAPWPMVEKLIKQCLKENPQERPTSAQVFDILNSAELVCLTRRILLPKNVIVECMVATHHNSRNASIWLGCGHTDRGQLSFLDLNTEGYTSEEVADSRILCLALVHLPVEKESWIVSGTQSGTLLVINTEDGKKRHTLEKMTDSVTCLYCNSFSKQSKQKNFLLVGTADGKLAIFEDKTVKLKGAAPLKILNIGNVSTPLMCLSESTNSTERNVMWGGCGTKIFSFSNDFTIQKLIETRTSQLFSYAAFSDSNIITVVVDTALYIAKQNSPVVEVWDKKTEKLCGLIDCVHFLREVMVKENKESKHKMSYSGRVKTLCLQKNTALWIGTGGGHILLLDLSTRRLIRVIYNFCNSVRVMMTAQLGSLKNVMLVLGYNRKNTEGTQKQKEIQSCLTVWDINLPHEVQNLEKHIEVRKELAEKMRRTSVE
Reported pIC50 by item:
// field semantics: pIC50 = negative decimal log of concentration (mol/L)

Some entries whose results are on file:
INSERT INTO measurements (mol, metric_name, observed_value) VALUES
  ('C[C@@H]1C[C@H](n2c(CS(=O)(=O)NCC3CC3)nc3cnc4ccc(C#N)cc4c32)CCO1', 'pIC50', 8.64),
  ('C[C@@H]1C[C@H](n2c(CC(=O)Nc3cnn(C)c3CO)nc3cnc4ccc(C#N)cc4c32)CCO1', 'pIC50', 9.34),
  ('C[C@@H]1C[C@H](n2c(CC(=O)Nc3ccc(C(F)(F)F)n(C)c3=O)nc3cnc4ccc(C#N)cc4c32)CCO1', 'pIC50', 9.28),
  ('Cc1ccc(NC(=O)Cc2nc3cnc4ccc(C#N)cc4c3n2[C@@H]2CCO[C@H](C)C2)c(C)n1', 'pIC50', 9.30),
  ('C[C@@H]1C[C@H](n2c([C@H]3CCN(S(C)(=O)=O)C3)nc3cnc4ccc(C#N)cc4c32)CCO1', 'pIC50', 8.28);

Alright, here's another compound for you.
Q. Param item = C[C@@H]1C[C@H](n2c(CC(=O)NC3CCOCC3)nc3cnc4ccc(Cl)cc4c32)CCO1 ; retrieve measured pIC50.
A. 9.41

###

target under test: wild type LRRK2 overexpressed in recombinant HEK-293T cells (Homo sapiens, UniProt Q5S007)
Construct: host or cells: HEK293T (transient transfection with pCMV-LRRK2 WT plasmid)
procedure summary: pS935 LRRK2 Cell Assay (HTRF, phospho-LRRK2 Ser935)
Assay type: cell-based
cond: LRRK2 Inhibition, Table 8, 2 hours compound incubation
Reported IC50 by item:
Just the number in nM, nothing appended.

Some entries whose results are on file:
INSERT INTO assay_data (molecule, target_under_test, observed_value) VALUES
  ('C[C@@H]1C[C@H](n2c(CNc3ncccn3)nc3cnc4ccc(C#N)cc4c32)CCO1', 'wild type LRRK2 overexpressed in recombinant HEK-293T cells (Homo sapiens, UniProt Q5S007)', 240),
  ('C[C@@H]1C[C@H](n2c(CC(=O)NC3CCOc4cccnc43)nc3cnc4ccc(Cl)cc4c32)CCO1 (stereo partly drawn)', 'wild type LRRK2 overexpressed in recombinant HEK-293T cells (Homo sapiens, UniProt Q5S007)', 10.5),
  ('C[C@@H]1C[C@H](n2c(CC(=O)Nc3cncnc3)nc3cnc4ccc(Cl)cc4c32)CCO1', 'wild type LRRK2 overexpressed in recombinant HEK-293T cells (Homo sapiens, UniProt Q5S007)', 5.73),
  ('C[C@@H]1C[C@H](n2c(CC(=O)NC3CCC3)nc3cnc4ccc(C#N)cc4c32)CCO1', 'wild type LRRK2 overexpressed in recombinant HEK-293T cells (Homo sapiens, UniProt Q5S007)', 26.2),
  ('Cc1nocc1NC(=O)Cc1nc2cnc3ccc(C#N)cc3c2n1[C@@H]1CCO[C@H](C)C1', 'wild type LRRK2 overexpressed in recombinant HEK-293T cells (Homo sapiens, UniProt Q5S007)', 7.15);

Q. Param item = COc1nn(C)cc1NC(=O)Cc1nc2cnc3ccc(C#N)cc3c2n1[C@@H]1CCO[C@H](C)C1 ; retrieve measured IC50.
A. 6.62

Q. What would you report for COc1ccc(NC(=O)Cc2nc3cnc4ccc(C#N)cc4c3n2[C@@H]2CCO[C@H](C)C2)cn1 ?
A. 5.52

Q. What would you report for C[C@@H]1C[C@H](n2c(CC(=O)NC3CC3(F)F)nc3cnc4ccc(C#N)cc4c32)CCO1 (stereo partly drawn) ?
A. 39

Q. What would you report for C[C@@H]1C[C@H](n2c(CC(=O)NC3CCCC3)nc3cnc4ccc(C#N)cc4c32)CCO1 ?
A. 10.2

Q. What would you report for COc1ncc(NC(=O)Cc2nc3cnc4ccc(C#N)cc4c3n2[C@@H]2CCO[C@H](C)C2)c(OC)n1 ?
A. 4.67

Q. What would you report for C[C@@H]1C[C@H](n2c(CC(=O)Nc3cnn(C4COC4)c3)nc3cnc4ccc(C#N)cc4c32)CCO1 ?
A. 107

Q. What would you report for C[C@@H]1C[C@H](n2c(C3CC(=O)N(CC4CC4)C3)nc3cnc4ccc(Cl)cc4c32)CCO1 (stereo partly drawn) ?
A. 88.7

Q. What would you report for C[C@@H]1C[C@H](n2c(CC3CN(S(C)(=O)=O)C3)nc3cnc4ccc(C#N)cc4c32)CCO1 ?
A. 525

Q. What would you report for C[C@@H]1C[C@H](n2c(C(F)(F)C(=O)NCC3CC3)nc3cnc4ccc(C#N)cc4c32)CCO1 ?
A. 26.5

Q. What would you report for C[C@@H]1C[C@H](n2c([C@H]3CN(CC4CC4)C(=O)O3)nc3cnc4ccc(C#N)cc4c32)CCO1 ?
A. 63.8

###

target under test: LRRK2 wild type enzyme (Homo sapiens, UniProt Q5S007)
procedure summary: Biochemical Assay: LRRK2 TR-FRET (LanthaScreen) kinase assay with LRRKtide substrate
cond: LRRK2 Inhibition, Table 8
pIC50: −log10 of the molar value.
Kind request: treat 9 as inclusive, so pIC50 at 9 or higher is fulfilled, anything lower is not fulfilled.

INSERT INTO results (molecule, qualitative_label) VALUES
  ('Cc1nc2ccc(C#N)cc2c2c1nc(CC(=O)NCC1CC1)n2[C@@H]1CCO[C@H](C)C1', 'not fulfilled'),
  ('C[C@@H]1C[C@H](n2c(C3CC(=O)N([C@H]4CCCOC4)C3)nc3cnc4ccc(C#N)cc4c32)CCO1 (some centres unmarked)', 'not fulfilled'),
  ('COc1nn(C)cc1NC(=O)Cc1nc2cnc3ccc(C#N)cc3c2n1[C@@H]1CCO[C@H](C)C1', 'fulfilled');

Q. Hi team, for COc1ncnc(OC)c1NC(=O)Cc1nc2cnc3ccc(C#N)cc3c2n1[C@@H]1CCO[C@H](C)C1 , is the recorded pIC50 at or above 9?
A. fulfilled

Q. What would you report for C[C@@H]1C[C@H](n2c(CC(=O)Nc3cc(C(F)(F)F)no3)nc3cnc4ccc(C#N)cc4c32)CCO1 ?
A. not fulfilled

Q. What would you report for C[C@@H]1C[C@H](n2c(CN3CCOCC3=O)nc3cnc4ccc(C#N)cc4c32)CCO1 ?
A. not fulfilled

Q. What would you report for C[C@@H]1C[C@H](n2c(C3CC(=O)N(Cc4cccnc4)C3)nc3cnc4ccc(C#N)cc4c32)CCO1 (single isomer, unassigned) [Compound 31] ?
A. not fulfilled

Q. What would you report for C[C@@H]1C[C@H](n2c(CC(=O)Nc3ccnn(C)c3=O)nc3cnc4ccc(C#N)cc4c32)CCO1 ?
A. fulfilled

Q. What would you report for COc1cc(C(F)(F)F)ncc1NC(=O)Cc1nc2cnc3ccc(C#N)cc3c2n1[C@@H]1CCO[C@H](C)C1 ?
A. fulfilled

Q. What would you report for CCOc1ncccc1NC(=O)Cc1nc2cnc3ccc(C#N)cc3c2n1[C@@H]1CCO[C@H](C)C1 ?
A. fulfilled

###

Listed here: molecules with reported IC50 for LRRK2 wild type enzyme (Homo sapiens, UniProt Q5S007).
Just the number in nM, nothing appended.

Some entries whose results are on file:
INSERT INTO results (molecule, observed_value) VALUES
  ('C[C@@H]1C[C@H](n2c(CC(=O)Nc3ccc(F)nc3)nc3cnc4ccc(C#N)cc4c32)CCO1', 0.387),
  ('C[C@@H]1C[C@H](n2c(CNC(=O)C3CC3)nc3cnc4ccc(C#N)cc4c32)CCO1', 6.61),
  ('C[C@@H]1C[C@H](n2c([C@H]3CCCN(C(=O)C4CC4)C3)nc3cnc4ccc(C#N)cc4c32)CCO1', 135),
  ('C[C@@H]1C[C@H](n2c([C@@H]3CCCN(C(=O)C4CC4)C3)nc3cnc4ccc(C#N)cc4c32)CCO1', 12.3),
  ('C[C@@H]1C[C@H](n2c(CC(=O)NCC3CCCCO3)nc3cnc4ccc(C#N)cc4c32)CCO1 (stereo partly shown)', 0.534);

Q. Param item = C[C@@H]1C[C@H](n2c(CC(=O)NCC3CC3)nc3cnc4ccc(C5CC5)cc4c32)CCO1 ; retrieve measured IC50.
A. 1.65

Q. What would you report for Cc1nc(NC(=O)Cc2nc3cnc4ccc(C#N)cc4c3n2[C@@H]2CCO[C@H](C)C2)no1 ?
A. 0.509

###

Reported IC50 by item:
target under test: UniProtKB Q5S007

Some entries whose results are on file:
INSERT INTO results (compound, target_under_test, observed_value) VALUES
  ('C[C@@H]1C[C@H](n2c(CC(=O)Nc3ccn(C4CC4)n3)nc3cnc4ccc(C#N)cc4c32)CCO1', 'UniProtKB Q5S007', '447 pM'),
  ('C[C@@H]1C[C@H](n2c(CC(=O)NC3(C)CCC3)nc3cnc4ccc(C#N)cc4c32)CCO1', 'UniProtKB Q5S007', '1290 pM'),
  ('C[C@@H]1C[C@H](n2c(CC(=O)NCC3(C)CC3)nc3cnc4ccc(C#N)cc4c32)CCO1', 'UniProtKB Q5S007', '548 pM');

Q. Param item = C[C@@H]1C[C@H](n2c(CC(=O)Nc3cnc(C(F)(F)F)n(C)c3=O)nc3cnc4ccc(C#N)cc4c32)CCO1 ; retrieve measured IC50.
A. 447 pM

Q. What would you report for C[C@@H]1C[C@H](n2c(CC(=O)NCC3CCO3)nc3cnc4ccc(C#N)cc4c32)CCO1 (some centres unmarked) ?
A. 715 pM

Q. What would you report for Cc1cc(F)ncc1NC(=O)Cc1nc2cnc3ccc(C#N)cc3c2n1[C@@H]1CCO[C@H](C)C1 ?
A. 387 pM

Q. What would you report for C[C@@H]1C[C@H](n2c(C3CC(=O)N(Cc4ccccn4)C3)nc3cnc4ccc(C#N)cc4c32)CCO1 (mixture of isomers) ?
A. 1090 pM

Q. What would you report for C[C@@H]1C[C@H](n2c(CC(=O)Nc3ccccn3)nc3cnc4ccc(C#N)cc4c32)CCO1 ?
A. 441 pM
